target: T1, αvβ3 integrin on cells (U87MG glioblastoma cells; K562-αvβ3 cells) (UniProt P06756 31-1048; P05106 27-788)
T1 construct: whole, on cells; also called cell surface αvβ3 integrin
T1 sequence (P06756 31-1048, chain 1 of 2): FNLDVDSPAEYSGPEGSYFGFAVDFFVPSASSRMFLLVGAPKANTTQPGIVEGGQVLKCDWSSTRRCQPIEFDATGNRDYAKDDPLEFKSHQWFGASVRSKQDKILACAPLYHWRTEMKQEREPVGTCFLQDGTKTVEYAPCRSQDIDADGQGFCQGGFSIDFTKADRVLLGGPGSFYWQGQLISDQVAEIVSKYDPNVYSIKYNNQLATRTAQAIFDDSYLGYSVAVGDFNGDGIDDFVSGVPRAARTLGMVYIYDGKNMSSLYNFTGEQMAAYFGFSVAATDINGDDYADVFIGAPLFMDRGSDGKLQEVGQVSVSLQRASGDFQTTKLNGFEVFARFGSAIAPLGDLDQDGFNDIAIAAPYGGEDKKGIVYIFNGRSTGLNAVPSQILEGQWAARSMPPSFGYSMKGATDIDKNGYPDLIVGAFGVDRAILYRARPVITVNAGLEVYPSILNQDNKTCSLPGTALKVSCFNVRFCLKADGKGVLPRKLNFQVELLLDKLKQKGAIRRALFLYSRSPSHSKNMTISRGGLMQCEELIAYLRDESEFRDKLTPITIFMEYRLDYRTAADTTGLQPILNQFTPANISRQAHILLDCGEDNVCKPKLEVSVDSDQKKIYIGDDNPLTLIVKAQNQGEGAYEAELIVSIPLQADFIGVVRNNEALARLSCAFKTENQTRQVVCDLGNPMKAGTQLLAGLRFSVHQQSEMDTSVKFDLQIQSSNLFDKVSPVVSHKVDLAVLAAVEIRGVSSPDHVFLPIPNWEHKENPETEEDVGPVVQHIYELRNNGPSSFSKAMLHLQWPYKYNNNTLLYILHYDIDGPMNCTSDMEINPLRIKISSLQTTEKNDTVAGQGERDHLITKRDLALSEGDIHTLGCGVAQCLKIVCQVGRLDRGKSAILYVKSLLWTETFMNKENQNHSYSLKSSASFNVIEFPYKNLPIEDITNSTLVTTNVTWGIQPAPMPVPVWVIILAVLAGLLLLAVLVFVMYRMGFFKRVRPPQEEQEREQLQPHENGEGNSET
T1 sequence (P05106 27-788, chain 2 of 2): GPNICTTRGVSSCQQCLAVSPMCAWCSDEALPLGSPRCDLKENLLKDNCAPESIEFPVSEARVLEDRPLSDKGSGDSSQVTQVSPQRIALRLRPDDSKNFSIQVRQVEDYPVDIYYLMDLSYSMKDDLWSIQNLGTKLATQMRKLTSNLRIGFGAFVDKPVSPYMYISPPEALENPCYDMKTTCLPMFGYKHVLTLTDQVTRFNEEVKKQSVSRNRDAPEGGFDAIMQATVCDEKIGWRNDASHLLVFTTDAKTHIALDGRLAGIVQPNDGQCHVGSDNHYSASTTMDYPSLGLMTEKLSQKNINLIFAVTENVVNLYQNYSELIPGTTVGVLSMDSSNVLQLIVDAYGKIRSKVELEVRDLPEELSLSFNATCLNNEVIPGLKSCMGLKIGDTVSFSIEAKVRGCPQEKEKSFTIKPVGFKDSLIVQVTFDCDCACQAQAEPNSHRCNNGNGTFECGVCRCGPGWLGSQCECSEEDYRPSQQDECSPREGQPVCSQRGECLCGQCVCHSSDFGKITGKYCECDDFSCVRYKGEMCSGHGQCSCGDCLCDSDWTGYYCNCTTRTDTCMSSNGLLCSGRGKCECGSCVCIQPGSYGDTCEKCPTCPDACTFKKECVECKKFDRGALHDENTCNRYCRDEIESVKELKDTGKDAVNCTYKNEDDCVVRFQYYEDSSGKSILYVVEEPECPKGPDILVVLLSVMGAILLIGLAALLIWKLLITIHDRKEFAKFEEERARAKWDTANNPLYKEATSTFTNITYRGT
test-protocol: competition with ^125I-echistatin on U87MG cells; Cy5.5-labeled peptide
No end group written: not given here.
IC50 strictly less than 3 nM = MET. Otherwise NOT MET.

Worked cases, answers included:
binder="{Cy5.5}-GCPRPRGDNPPLTCSQDSDCLAGCVCGPNGFCG (cysteine pairing not given here) [Cy5.5-labeled Miniprotein 2.5F]" assigned_class="NOT MET"
binder="{Cy5.5}-GCPQGRGDWAPTSCSQDSDCRAGCVCGPNGFCG (cysteine pairing not given here) [Cy5.5-labeled Miniprotein 2.5D]" assigned_class="NOT MET"
binder="QCESGPCCRNCKFLKEGTICKRARGDDMDDYCNGKTCDCPRNPHKGPAT (ligand, ends and bridges not checked; also: Cy5.5-labeled, site not given here) [Cy5.5-labeled echistatin]" assigned_class=MET
binder="{Cy5.5}-GCVTGRGDSPASSCSQDSDCLAGCVCGPNGFCG (cysteine pairing not given here, also called Cy5.5-labeled FN-RGD) [Cy5.5-labeled loop-grafted FN-RGD]" assigned_class="NOT MET"

Input: Decide: IC50 of {Cy5.5}-GCTIGRGDWAPSECSQDSDCLAGCVCGPNGFCG (cysteine pairing not given here) [Cy5.5-labeled Miniprotein 1.5B] strictly below 3 nM?
Output: NOT MET
